The origin of these recorded values is patent US9701669B2.

# TARGET SYSTEM: UniProt:P25116
# Sequence (P25116 22-425): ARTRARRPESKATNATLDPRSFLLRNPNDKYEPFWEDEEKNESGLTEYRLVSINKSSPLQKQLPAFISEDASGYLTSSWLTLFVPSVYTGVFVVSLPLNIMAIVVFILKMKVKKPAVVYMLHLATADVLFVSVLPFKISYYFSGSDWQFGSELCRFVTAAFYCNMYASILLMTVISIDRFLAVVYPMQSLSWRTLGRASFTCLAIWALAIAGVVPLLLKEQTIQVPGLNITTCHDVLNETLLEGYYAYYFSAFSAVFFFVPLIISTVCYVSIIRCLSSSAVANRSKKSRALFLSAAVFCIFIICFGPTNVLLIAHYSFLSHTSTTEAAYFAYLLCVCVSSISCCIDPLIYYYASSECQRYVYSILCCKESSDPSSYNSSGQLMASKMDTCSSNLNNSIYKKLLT
# EXPERIMENT SUMMARY: PAR-1 FLIPR Assay
# APPLIED CONDITIONS: HEK 293 cells, calcium signal after PAR-1 selective receptor-activating peptide at 80% activation
# Experimental: This assay measures the potency of the inventive compounds as PAR-1 receptor antagonists. Frozen HEK 293 Cells were plated in 384-well PDL coated plates at 12000 cells/well in 50 uL of DMEM media containing 10% FBS, pen/strep/L-Glutamine and non-essential amino acids, incubated overnight at 37° C./5% CO2. […] The data were analyzed by taking the peak signal over a portion of the range of the 60 scans and dividing this signal by the minimum signal for that same range.
QUANTITY NAME: pIC50
Reminder that pIC50 means the negative base-10 logarithm of the concentration expressed in mol/L.

Lookup: Hi! What's the reported pIC50 for "Cc1cccc(-c2ccc(/C=C/[C@@H]3[C@@H]4[C@@H](C)OC(=O)[C@]4(C(N)=O)CC(F)(F)[C@H]3C)nc2)c1F" on UniProt:P25116?
Found: 8.42

Lookup: Which pIC50 is reported with UniProt:P25116 for this entry: "C[C@H]1OC(=O)[C@]2(CCC(N)=O)CC(F)(F)[C@@H](C)[C@H](/C=C/c3ccc(-c4ccccc4C#N)cn3)[C@H]12" ?
Found: 8.36

Lookup: Value wanted: pIC50 (UniProt:P25116) of entry "C[C@H]1OC(=O)[C@]2(N3CC(C(N)=O)C3)CC(F)(F)[C@@H](C)[C@H](/C=C/c3ccc(-c4cccc(F)c4)cn3)[C@H]12"
Found: 7.86

Lookup: Give recorded pIC50 with UniProt:P25116 for the following molecule: "COc1ncccc1-c1ccc(/C=C/[C@@H]2[C@@H]3[C@@H](C)OC(=O)[C@]3(CC(N)=O)CC(F)(F)[C@H]2C)nc1"
Found: 6.98

Lookup: Entry "Cc1c(F)cccc1-c1ccc(/C=C/[C@@H]2[C@@H]3[C@@H](C)OC(=O)[C@]3(C(N)=O)CC(F)(F)[C@H]2C)nc1" , system UniProt:P25116: what pIC50 was measured?
Found: 8.86

Lookup: # query: pIC50 | item C[C@H]1OC(=O)[C@]2(C(O)C(N)=O)CC(F)(F)[C@@H](C)[C@H](/C=C/c3ccc(-c4ccccc4C#N)cn3)[C@H]12 (mixture of isomers) | system: UniProt:P25116
Found: 8.36

Lookup: // lookup pIC50 | system=UniProt:P25116 | key= "C[C@H]1OC(=O)[C@]2(C(N)=O)CC(F)(F)[C@@H](C)[C@H](/C=C/c3ccc(-c4cccc5c4OC(F)(F)O5)cn3)[C@H]12"
Found: 8.35

Lookup: Enter reported pIC50 observed with UniProt:P25116 for "C[C@H]1OC(=O)[C@]2(C(C)(C)C(N)=O)CC(F)(F)[C@@H](C)[C@H](/C=C/c3ccc(-c4ccccc4C#N)cn3)[C@H]12"
Found: 7.77

Lookup: Give the reported pIC50 for "C[C@H]1OC(=O)[C@]2(CC(N)=O)CC(F)(F)[C@@H](C)[C@H](/C=C/c3ccc(-c4cccnc4C#N)cn3)[C@H]12" (system: UniProt:P25116).
Found: 7.67

Lookup: Recorded pIC50 for "C[C@H]1OC(=O)[C@]2(N3CC(C(N)=O)C3)CC(F)(F)[C@@H](C)[C@H](/C=C/c3ccc(-c4ccccc4C#N)cn3)[C@H]12" with UniProt:P25116, please?
Found: 8.24

Lookup: Identify the measured pIC50 of "C[C@H]1OC(=O)[C@]2(C(N)=O)CC(F)(F)[C@@H](C)[C@H](/C=C/c3ccc(-c4ccccc4C#N)cn3)[C@H]12" for UniProt:P25116.
Found: 8.53

Lookup: Request body: readout pIC50, system UniProt:P25116, query "C[C@H]1OC(=O)[C@]2(CCC(N)=O)CC(F)(F)[C@@H](C)[C@H](/C=C/c3ccc(-c4cccnc4C#N)cn3)[C@H]12" . Return the value.
Found: 8.20
